- method summary: CO release from aldehydes in different media (TBHP, H2O2, rpmi, pH 2), gas chromatograph
- experimental parameters: aqueous solution pH 2-2.5, 37° C.
quantity kind: CO release in pH 2 (acidic aqueous) solution

CC(C)(C)C=O	very little
C=CCC(C)(C)C=O	very little

----------
- method summary: CO release from aldehyde prodrug compounds in TBHP plus rpmi solution
- experimental parameters: TBHP plus rpmi, 6 hours
Below is a list of entries, each paired with its recorded CO release after 6 hours value.

CC(C)(C)C1NCCS1 (racemic)	3%

Query: // lookup CO release after 6 hours for CC(C)(C)C1NC(C(=O)O)CCS1 (racemic)
Response: 7.7%

Query: // lookup CO release after 6 hours for COC(=O)C1COC(C(C)(C)C)N1 (centres unmarked)
Response: 0%

Query: // lookup CO release after 6 hours for COC(=O)C1CSC(C(C)(C)C)N1 (racemic)
Response: 0.3%
